- procedure-details: NCI Yeast Anticancer Drug Screen. Data for the cln2 rad14 strain (AID 165);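 further: 0% = growth equal to vehicle treated cultures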
- condition-label: S. cerevisiae cln2 rad14 strain, at 5.0 µM (retest, dose inferred, filed as 0.5)
Compounds without any hit were thinned out: in the full panel of roughly 79,000, 15% have a hit. The source made the active and inactive calls. No stated cut-off is given here; in the data, active means growth inhibition above about 70%; inactive means the rest.
Assign a class; possible classes are active, inactive

Q: Look up the recorded call for O=C1C(c2c[nH]c3ccccc23)=Nc2ccc(Br)cc21 in this test.
A: inactive

Q: Can you handle CCC(CC)N(CCNc1cc(OC)cc2cccnc12)CC(C)C next?
A: inactive

Q: Can you handle O=C(O)CCc1ccc2ccccc2c1 next?
A: inactive

Q: Can you handle C[N+](C)(C)CCCCCCCCCCC(=O)N/N=C/c1ccc([N+](=O)[O-])o1 next?
A: inactive

Continuing:
Q: Look up the recorded call for O=C1c2ccccc2-c2ccc(N3C(=O)C4CCCCC4C3=O)cc21 (centres undefined) in this test.
A: inactive

Q: Can you handle O=C1OC(c2ccccc2)N/C1=C\c1ccc2c(c1)OCO2 (centres undefined) next?
A: inactive

Q: Can you handle Cc1cc(C(=O)CBr)c(CN2C(=O)c3ccccc3C2=O)c(=O)n1C next?
A: inactive

Q: Can you handle CS(=O)(=O)OCCN(CCOS(C)(=O)=O)c1ccc(C=Nc2ccc(-c3csc(-c4ccc(Cl)cc4)n3)cc2)cc1 next?
A: inactive

* * *

- procedure-details: NCI Yeast Anticancer Drug Screen. Data for the rad50 strain (AID 155);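 further: 0% = growth of vehicle-only cultures of the same strain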
- condition-label: S. cerevisiae rad50 strain growth inhibition; at 5.0 µM (retest, dose inferred, filed as 0.5); hits give high values
About 79,000 compounds went through this panel and 15% of them were active in at least one assay; those are over-represented in the sample as a whole.
Recorded growth inhibition values for a group of compounds are listed next.
Field: numeric (%). Do not append units.

Example entries and their recorded answers appear below.
Q: Form field: reported growth inhibition of CC(=O)OCC1OC(OC2C=C(O[Si](C)(C)C)C[C@H]3C(=O)C=CC(=O)[C@@H]23)C(OC(C)=O)C(OC(C)=O)C1OC(C)=O (stereo not given in full)
A: 6

Q: Can you handle CC12CCC3C(CCC4CC(O)CCC43C)C1CC=CO2 (stereo not given) next?
A: 1

Q: Can you handle O=C1c2c(Br)sc(Br)c2[C@@H](NC(=O)C(F)(F)F)C1Br (stereo not given in full) next?
A: 8

Continuing:
Q: Form field: reported growth inhibition of CC(C)OC1=C(Cl)C(=O)c2c(cccc2[N+](=O)[O-])C1=O
A: 32

Q: Can you handle CCCCCCCCCC[N+](C)(C)CCC[N+](C)(C)CCCCCCCCCC next?
A: 42

* * *

- procedure-details: NCI Yeast Anticancer Drug Screen. Data for the cln2 rad14 strain (AID 165);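 further: 0% = growth equal to vehicle treated cultures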
- condition-label: S. cerevisiae cln2 rad14 strain, at 50.0 µM (retest, dose inferred, filed as 5.0), hits give high values
About 79,000 compounds went through this panel and 15% of them were active in at least one assay; those are over-represented in the sample as a whole.
Decision: growth inhibition >= 40% yields 1.0, all other cases yield 0.0.

Q: Is the recorded value of growth inhibition equal to or greater than 40% for this compound? Cc1ccccc1NC(=O)CSC(N)=O
A: 0.0

Q: Can you handle CN(C)CC1(C)CC/C(=C\c2ccc(Cl)cc2)C1=O (centres undefined) next?
A: 0.0

Q: Can you handle C=CCOc1ccc(C2(c3ccc(OCC=C)cc3)C(=O)Nc3ccccc32)cc1 next?
A: 1.0

Continuing:
Q: Is the recorded value of growth inhibition equal to or greater than 40% for this compound? COc1ccc(-c2c(-c3ccccc3)c(C)nc3[nH]c(=S)[nH]c(=S)c23)cc1OC
A: 1.0

Q: Can you handle CCOC(=O)c1cnn(-c2ccccc2)c1N next?
A: 1.0

Q: Can you handle Cc1nn(C(=O)c2ccccc2O)c2c1C(c1ccc(O)cc1O)SC(N)=N2 (centres undefined) next?
A: 0.0

Q: Can you handle O=C(O)Cc1cccc(O)c1 next?
A: 0.0

Q: Can you handle Cc1ccccc1Sc1ccccc1[N+](=O)[O-] next?
A: 0.0

Q: Can you handle CCC[CH2][Ge]([CH2]CCC)([CH2]CCC)[O]C(=O)CC(=O)c1ccccc1 next?
A: 0.0

Q: Can you handle N#CSCC(=O)c1ccc2ccccc2c1 next?
A: 1.0

Q: Can you handle O=C(O)C/C(=C\c1ccco1)C(=O)O next?
A: 0.0

Q: Can you handle CCC(N)C(O)C(C)C (centres undefined) next?
A: 0.0

Q: Can you handle O=c1c2ccccc2c2ccccc2c(=O)n1-c1cc2c3ccccc3ccc2c2ccccc12 next?
A: 0.0

Q: Can you handle N#CCCN(CCC#N)Cc1cc(-c2ccccc2)ccc1O next?
A: 0.0

Q: Can you handle OC(CCl)c1ccc2ccc3c(c2c1)Nc1ccccc1S3 (centres undefined) next?
A: 1.0

Q: Can you handle Clc1ccc(C(CCc2ccc(Br)cc2)Cn2ccnc2)c(Cl)c1 (centres undefined) next?
A: 1.0

Q: Can you handle CCOC(=O)c1ccc(O)c(C=O)c1 next?
A: 1.0

* * *

- procedure-details: NCI Yeast Anticancer Drug Screen. Data for the mlh1 rad18 strain (AID 175)
- condition-label: S. cerevisiae mlh1 rad18 strain growth inhibition; at 50.0 µM
The panel holds about 79,000 compounds, 15% with a hit somewhere; the sample as a whole holds those more often. Calls of active or inactive are those of the source. No stated cut-off is given here; in the data, active means growth inhibition above about 70%; inactive means the rest.
Assign a class; possible classes are active, inactive

Q: Look up the recorded call for CN(C)c1ccc(C=Nc2cncc3ccccc23)cc1 in this test.
A: inactive

Q: Can you handle COc1cccc2c1OC(c1cccc3ccccc13)C([N+](=O)[O-])=C2 (centres undefined) next?
A: inactive

Q: Can you handle CC(c1ccccc1)c1cc(C(C)(C)C)ccc1O (centres undefined) next?
A: active

Q: Can you handle O=C(Nc1ccc(NC(=O)Nc2cc(C(=O)Nc3ccc(C4=NCCN4)cc3)ccc2C(=O)Nc2ccc(C3=NCCN3)cc2)cc1)Nc1cc(C(=O)Nc2ccc(C3=NCCN3)cc2)ccc1C(=O)Nc1ccc(C2=NCCN2)cc1 next?
A: active

Q: Can you handle CC(C)c1ccc2c(c1)CC[C@H]1[C@](C)(C(=O)O)CCC[C@]21C next?
A: active

Q: Can you handle Oc1c(Cl)cc(CN(Cc2cc(Cl)c(O)c(Cl)c2)C2CCCCC2)cc1Cl next?
A: active

Continuing:
Q: Look up the recorded call for CN(C)c1ccccc1[CH2][Ga]([Cl])[CH2]c1ccccc1N(C)C in this test.
A: active

Q: Can you handle NC(=S)n1nc(-c2ccccc2)c(N=Nc2ccccc2Cl)c1-c1ccccc1 next?
A: active

Q: Can you handle CCCCCC[C@@H](O)C/C=C\CCCCCCCC(=O)OCCCC next?
A: inactive

* * *

- procedure-details: NCI Yeast Anticancer Drug Screen. Data for the bub3 strain (AID 167)
- condition-label: S. cerevisiae bub3 mutant strain, at 50.0 µM (retest, dose inferred, filed as 5.0)
This is part of a sample that, as a whole, favours compounds with a hit. Of some 79,000 tested, about 15% had one in any assay. Activity calls are given as the source filed them. No stated cut-off is given here; in the data, active means growth inhibition above about 70%; inactive means the rest.
Assign a class; possible classes are active, inactive

Q: Look up the recorded call for CCCCCC(O)C(C)CO (stereo unspecified) in this test.
A: inactive

Q: Can you handle Nc1ccccc1[S][Sn]([c]1ccccc1)([c]1ccccc1)[c]1ccccc1 next?
A: active

Q: Can you handle CC(=O)OCC1OC(n2c(O)c(N=NC(N)=S)c3ccc([N+](=O)[O-])cc32)C(OC(C)=O)C1OC(C)=O (stereo unspecified) next?
A: inactive

Q: Can you handle CSc1nc(N)c2cnn(C3OC(CO)C(O)C3O)c2n1 (stereo unspecified) next?
A: active

Q: Can you handle C=CCOc1ccc(C2(c3ccc(OCC=C)cc3)C(=O)Nc3ccccc32)cc1 next?
A: active

Q: Can you handle Cc1ccccc1Sc1ccccc1[N+](=O)[O-] next?
A: inactive

Q: Can you handle O=C(CC(C[N+](=O)[O-])c1ccc2c(c1)OCO2)c1ccccc1 (stereo unspecified) next?
A: inactive

Q: Can you handle O=S1(=O)C(Br)=Cc2ccccc21 next?
A: active

Q: Can you handle Cc1cc2nc3ccc(N)cc3oc-2cc1=[N+](C)C next?
A: active

Q: Can you handle NCC(=O)N/N=C/c1ccc([N+](=O)[O-])o1 next?
A: inactive

Continuing:
Q: Look up the recorded call for CC(c1ccccc1)[P+](c1ccccc1)(c1ccccc1)c1ccccc1 (stereo unspecified) in this test.
A: active

* * *

- procedure-details: NCI Yeast Anticancer Drug Screen. Data for the rad50 strain (AID 155);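 further: 0% = growth of vehicle-only cultures of the same strain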
- condition-label: S. cerevisiae rad50 strain growth inhibition; at 50.0 µM (retest, dose inferred, filed as 5.0)
About 79,000 compounds went through this panel and 15% of them were active in at least one assay; those are over-represented in the sample as a whole. Calls of active or inactive are those of the source. Cut-off read from the data, not from the text of the source: active = growth inhibition above about 70%; inactive = the rest.
Assign a class; possible classes are active, inactive

Field: example entries. Status: answers known.
Q: Look up the recorded call for O=[N+]([O-])c1ccc(C2=Nn3cnnc3SC2)o1 in this test.
A: inactive

Q: Can you handle O=C(c1ccccc1)N(C(=S)N(C(=O)c1ccccc1)c1ccccc1)c1ccccc1 next?
A: inactive

Q: Can you handle Nc1cc2c(cc1/C=C(\C(=O)O)c1ccccc1)OCO2 next?
A: inactive

Q: Can you handle Nc1ccc(Oc2ccccc2)cc1 next?
A: inactive

Shifting focus to the compound that follows.
Q: Look up the recorded call for COc1cccc2c1C(=O)c1c(O)c3c(c(O)c1C2=O)CC(O)(C(C)=O)CC3OC1CC(NCC2(O)OCC(O)C2O)C(O)C(C)O1 (stereo not given) in this test.
A: active
